This collection of values is drawn from patent US20020026053A1.

Assayed target: Met receptor (EGFR/Met chimeric cells, EMR) (Homo sapiens)
Construct: expressed in transfected cells; the other entry of the earlier key: EGFR (P00533, Epidermal growth factor receptor)
Sequence (P08581 with tags, fused parts or gaps): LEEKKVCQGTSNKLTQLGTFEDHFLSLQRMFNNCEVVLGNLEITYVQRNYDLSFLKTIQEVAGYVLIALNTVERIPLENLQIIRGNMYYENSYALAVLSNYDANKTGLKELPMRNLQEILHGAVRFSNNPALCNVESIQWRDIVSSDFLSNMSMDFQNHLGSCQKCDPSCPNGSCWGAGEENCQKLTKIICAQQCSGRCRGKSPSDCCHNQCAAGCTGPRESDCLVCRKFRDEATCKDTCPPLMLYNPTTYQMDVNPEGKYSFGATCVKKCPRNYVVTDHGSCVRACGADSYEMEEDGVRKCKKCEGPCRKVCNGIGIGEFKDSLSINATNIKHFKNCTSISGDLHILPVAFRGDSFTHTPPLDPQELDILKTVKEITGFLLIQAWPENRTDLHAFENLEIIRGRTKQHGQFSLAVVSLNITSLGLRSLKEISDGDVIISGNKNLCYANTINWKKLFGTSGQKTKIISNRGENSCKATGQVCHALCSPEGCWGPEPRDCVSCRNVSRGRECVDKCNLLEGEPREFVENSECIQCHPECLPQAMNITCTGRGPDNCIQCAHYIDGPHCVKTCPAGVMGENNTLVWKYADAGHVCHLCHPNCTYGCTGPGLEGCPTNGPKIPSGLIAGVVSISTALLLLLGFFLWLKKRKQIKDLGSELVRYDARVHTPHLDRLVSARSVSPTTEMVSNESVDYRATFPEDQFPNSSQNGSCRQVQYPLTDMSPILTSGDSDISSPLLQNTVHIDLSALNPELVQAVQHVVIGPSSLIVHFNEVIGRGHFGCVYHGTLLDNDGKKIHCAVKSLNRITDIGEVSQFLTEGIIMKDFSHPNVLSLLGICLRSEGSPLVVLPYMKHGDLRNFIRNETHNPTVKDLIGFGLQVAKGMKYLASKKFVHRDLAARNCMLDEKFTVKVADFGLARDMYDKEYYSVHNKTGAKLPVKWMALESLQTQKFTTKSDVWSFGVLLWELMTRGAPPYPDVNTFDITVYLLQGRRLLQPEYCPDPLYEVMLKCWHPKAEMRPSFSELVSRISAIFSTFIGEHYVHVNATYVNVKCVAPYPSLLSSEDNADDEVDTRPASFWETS
Experimental protocol: Met Autophosphorylation Assay
Format: biochemical
Settings: protocol P.130
Cut-off 40% on Met Kinase % Inhibition (P.130), inclusive. At or above means fulfilled; below means not fulfilled.

Smiles input	Qualitative label
Cc1ccc(C=C2C(=O)Nc3ccc(CCCl)cc32)c(C)c1	not fulfilled
COc1ccccc1C=C1C(=O)Nc2ccc(I)cc21	fulfilled

Pending compound:
Ask: Hi team, for O=C1Nc2c(Br)cc(Br)cc2C1=Cc1ccc2ccccc2c1 , is the recorded Met Kinase % Inhibition (P.130) at or above 40%?
Reply: not fulfilled
